Items are presented alongside their recorded Population Hoechst High Intensity Objects (%).
# Tested on: Fibroblast
# experimental protocol: Multiplex assay against human fibroblast
# Type: toxicity, cell-based
# study conditions: 12 h, 1 µM, compound concentration 1 uM, replicate 2
metric name: Population Hoechst High Intensity Objects (%)

molecule	readout unit	observed measurement
O=C1COc2nccc(-c3ccccc3F)c2CN1Cc1cc(C(F)(F)F)cc(C(F)(F)F)c1	%	0
Cc1ccc(F)cc1C(=O)Nc1ccc(C(=O)N2Cc3cccn3Cc3ccccc32)c(Cl)c1	%	3
CC[C@H]1OC(=O)[C@H](C)[C@@H](O[C@H]2C[C@@](C)(OC)[C@@H](O)[C@H](C)O2)[C@H](C)[C@@H](O[C@@H]2O[C@H](C)C[C@H](N(C)C)[C@H]2O)[C@@]2(C)CC(C)=C(O2)[C@H](C)[C@@H](O)[C@]1(C)O	%	3
CCCN1CCC[C@@H]2Cc3n[nH]cc3C[C@H]21.Cl [QUINPIROLE HYDROCHLORIDE]	%	6
Cc1nc2ccc(Oc3ccc(F)cc3)cc2c(=O)n1C[C@H]1CCCN(C(C)C)C1.Cl	%	9
C[C@@H]1C[C@H]2[C@@H]3CCC4=CC(=O)C=C[C@]4(C)[C@@]3(F)[C@@H](O)C[C@]2(C)[C@@]1(O)C(=O)CO	%	3
CCNC1(C(N)=O)CCN(c2ncnc3c2nc(-c2ccccc2Cl)n3-c2ccc(Cl)cc2)CC1	%	2
Cc1ccc(C(C)(O)c2nc3ccccc3s2)c(C)c1 (centres undefined)	%	5
COc1ccc2c(c1)C(C(=O)N(Cc1ccc(N(C)C)cc1)c1ccc(C(C)C)cc1)CCC2.Cl (centres undefined)	%	5

====

# Tested on: Fibroblast
# experimental protocol: Multiplex assay against human fibroblast
# Assay type: toxicity, cell-based
# study conditions: 48 h, 1 µM, compound concentration 1 uM, replicate 1
Each entry below carries its recorded Population Pyknosed Nuclei (%).
metric name: Population Pyknosed Nuclei (%)

> print(dat)
                                   compound  experimental.system                     metric.name  observed.measurement
1           c1cc(OCCCN2CCCCC2)ccc1CN1CCCCC1           Fibroblast  Population Pyknosed Nuclei (%)                    17
2  N[C@@]1(C(=O)O)CO[C@H]2[C@H](C(=O)O)[C@H]21           Fibroblast  Population Pyknosed Nuclei (%)                     8
3  C[C@H]1[C@H]2CC[C@H]3[C@@H]4CC=C5C[C@@H](N(C)C)CC[C@]5(C)[C@H]4CC[C@]23CN1C           Fibroblast  Population Pyknosed Nuclei (%)                     9
4  Cl.Clc1ccc2nsnc2c1NC1=NCCN1 [TIZANIDINE HYDROCHLORIDE]           Fibroblast  Population Pyknosed Nuclei (%)                    10

====

# Tested on: HEK-293T
# experimental protocol: Multiplex assay against HEK293T
# Assay type: toxicity, cell-based
# study conditions: human, 48 h, 1 µM, compound concentration 1 uM, replicate 1
Reported values of Population Tubulin-Different-Phenotype (%) for individual entries
metric name: Population Tubulin-Different-Phenotype (%)

> print(dat)
                                    compound  readout.unit  observed.measurement
 1  CC1(COc2ccc3c(c2)ncn3-c2ccc3cccc(N4CCC(N)CC4)c3n2)COC1 [CRENOLANIB]             %                    10
 2  N[C@@]1(C(=O)O)CO[C@H]2[C@H](C(=O)O)[C@H]21 [LY-379268]             %                     9
 3  CCNC1(C(N)=O)CCN(c2ncnc3c2nc(-c2ccccc2Cl)n3-c2ccc(Cl)cc2)CC1 [OTENABANT]             %                    30
 4  COc1cc(NC(=O)CCN2CCC(OC(=O)Nc3ccccc3-c3ccccc3)CC2)c(Cl)cc1CNC[C@H](O)c1ccc(O)c2[nH]c(=O)ccc12 [BATEFENTEROL]             %                    17
 5   CN(C)c1ccnc2sc3c(=O)n(N4CCCCCC4)cnc3c12             %                    14
 6  C[C@H](NC(=O)c1c(C(F)F)nn(C)c1Oc1cccc(C(F)(F)F)c1)c1ccc(C(=O)O)cc1 [PALUPIPRANT]             %                    13
 7  O=C(O)c1cc2ccccc2c(Cc2c(O)c(C(=O)O)cc3ccccc23)c1O [PAMOIC ACID]             %                    10
 8  C[C@H]1[C@H]2CC[C@H]3[C@@H]4CC=C5C[C@@H](N(C)C)CC[C@]5(C)[C@H]4CC[C@]23CN1C [CONESSINE]             %                    12
 9  Cc1nc2ccc(Oc3ccc(F)cc3)cc2c(=O)n1C[C@H]1CCCN(C(C)C)C1.Cl             %                    14
10  Cl.Clc1ccc2nsnc2c1NC1=NCCN1 [TIZANIDINE HYDROCHLORIDE]             %                    10
11  O=C(NCCO)c1cccc(-c2cc(Nc3ccc(OC(F)(F)F)cc3)ncn2)c1             %                    13
12   CNC[C@H](O)c1ccc(O)c(O)c1 [EPINEPHRINE]             %                     9
13  O=C(O)Cc1ccccc1Nc1c(Cl)cccc1Cl [DICLOFENAC]             %                    15
14  c1cc(OCCCN2CCCCC2)ccc1CN1CCCCC1 [JNJ-5207852]             %                    11
15  CSc1ccccc1N1CCN(CCCCCC(=O)NC2CCCc3ccccc32)CC1.Cl (stereo not drawn)             %                    27
16  CSCC[C@H](NC=O)C(=O)N[C@@H](CC(C)C)C(=O)N[C@@H](Cc1ccccc1)C(=O)O             %                    12
17  CN1CCN(c2nc3cc(C(F)(F)F)ccc3n3cccc23)CC1.O=C(O)/C=C\C(=O)O.O=C(O)/C=C\C(=O)O             %                    17
18  CC(=O)NCCc1c(Cc2ccccc2)[nH]c2ccccc12 [LUZINDOLE]             %                    12

====

# Tested on: Fibroblast
# experimental protocol: Multiplex assay against human fibroblast
# Type: toxicity, cell-based
# study conditions: 48 h, 1 µM, compound concentration 1 uM, replicate 1
metric name: Total Cell Count

> print(dat)
                                   compound  experimental.system       metric.name  observed.measurement
1  C[C@H](NC(=O)c1c(C(F)F)nn(C)c1Oc1cccc(C(F)(F)F)c1)c1ccc(C(=O)O)cc1 [PALUPIPRANT]           Fibroblast  Total Cell Count                   184
2   CN(C)c1ccnc2sc3c(=O)n(N4CCCCCC4)cnc3c12           Fibroblast  Total Cell Count                   143
3  Cc1ccccc1C(=O)Nc1ccc(C(=O)N2CCCC(N(C)C)c3ccccc32)cc1.Cl (stereo not drawn)           Fibroblast  Total Cell Count                   158
4  CCOc1c2c(c(OCC)c3ncccc13)CN(c1ccc(CS(=O)(=O)NC(=O)Cc3ccccc3OC)cc1C)C2=O           Fibroblast  Total Cell Count                   128
5  O=C(NCC(=O)N1CC[C@H](N[C@H]2CC[C@@](O)(c3ccc(-c4ncccn4)cn3)CC2)C1)c1cccc(C(F)(F)F)c1 [PF-4136309]           Fibroblast  Total Cell Count                   149
6  CN(C)CCCc1cc(C(=O)Nc2ccc(-c3ccncc3)cc2)ccc1O.Cl.Cl           Fibroblast  Total Cell Count                   126
7  O=C1COc2nccc(-c3ccccc3F)c2CN1Cc1cc(C(F)(F)F)cc(C(F)(F)F)c1           Fibroblast  Total Cell Count                   210
8  CN1CCN(c2nc3cc(C(F)(F)F)ccc3n3cccc23)CC1.O=C(O)/C=C\C(=O)O.O=C(O)/C=C\C(=O)O           Fibroblast  Total Cell Count                   162
